assay: BET inhibitor-based combinations targeting novel dependencies in MECOM-rearranged (r) AML: AML-191 cell line (AID 2202236; also: nearly all actives have a fitted effect of over 35% in size); conditions: AML-191 viability, CellTiter-Glo luminescence, 48 h; series mostly up to 46 µM
Results filed as inconclusive are left out. Calls of active or inactive are those of the source. Calls follow the shape of the dose curve; as a rule, active = well fitted inhibition curve with a large enough effect; inconclusive = small, poorly fitted or top-dose-only effect; inactive = flat fitted curve, though single readings scatter.
Outcome codes: y = active, n = inactive

CCCc1nc(C(C)(C)O)c(C(=O)O)n1Cc1ccc(-c2ccccc2-c2nn[nH]n2)cc1; n
Cc1cccc(CN2CCN(C(c3ccccc3)c3ccc(Cl)cc3)CC2)c1 (configuration not stated); n
CC(C)c1cc(CNc2nc(Nc3cc(C4CC4)[nH]n3)cc(N3CCN(C)CC3)n2)on1; y
c1ccc(-c2oc3ncnc(NC[C@@H]4CCCO4)c3c2-c2ccccc2)cc1; n
Cc1cc(-c2cc(OC(=O)c3ccccc3)ccc2Cl)cc2nnc(Nc3ccc(OCCN4CCCC4)cc3)nc12; n
Cc1nnc(C(C)C)n1C1CC2CCC(C1)N2CCC(NC(=O)C1CCC(F)(F)CC1)c1ccccc1 (configuration not stated); n
CC(=O)[C@H]1CC[C@H]2[C@@H]3CC=C4C[C@@H](O)CC[C@]4(C)[C@H]3CC[C@]12C; n
COc1cc([C@@H]2c3cc4c(cc3[C@H](O)[C@H]3COC(=O)[C@H]23)OCO4)cc(OC)c1OC; y
O=C(O)C[C@H](O)C[C@H](O)/C=C/c1c(C2CC2)nc2ccccc2c1-c1ccc(F)cc1; y
C[C@@H](Oc1cc(-n2cnc3ccc(CN4CCN(C)CC4)cc32)sc1C(N)=O)c1ccccc1C(F)(F)F; y
COc1cc(-c2nn(C3CCC(N4CCN(C(C)=O)CC4)CC3)c3ncnc(N)c23)ccc1NC(=O)c1cc2ccccc2n1C (configuration not stated); y
Cc1nn(C)c(COc2ccc(N3CCN(S(=O)(=O)N(C)C)CC3)cc2)c1-c1cccc2c(CCCOc3cccc4ccccc34)c(C(=O)O)n(CCN3CCOCC3)c12; n
Clc1ccc2nsnc2c1NC1=NCCN1; n
O=C(Nc1ccc([N+](=O)[O-])cc1Cl)c1cc(Cl)ccc1O; y
CCN(CC)CCNC(=O)c1c(C)[nH]c(/C=C2\C(=O)Nc3ccc(F)cc32)c1C; y
NCCOc1cc(C(=O)Nc2cc(OCCN)c3ccccc3n2)nc(C(=O)Nc2cc(OCCN)c3ccccc3n2)c1; n
Cc1nn(C)c2c1C(c1ccc(C(F)(F)F)cc1)C(C#N)=C(N)O2 (configuration not stated); n
CC(=O)c1cnc2ccc(-c3cc(Cl)c(O)c(Cl)c3)nc2c1NC1CCC(CN(C)C)CC1 (configuration not stated); y
CC(C)(C)c1cnc(CSc2cnc(NC(=O)C3CCNCC3)s2)o1; y
Nc1ncnc2c1nc(Cl)n2[C@@H]1O[C@H](CO)[C@@H](O)[C@@H]1O; y
CN(CC(=O)N(Cc1ccc(C2CCCCC2)cc1)c1ccc(C(=O)O)c(O)c1)S(=O)(=O)c1c(F)c(F)c(F)c(F)c1F; y
C#Cc1cccc(Nc2ncnc3cc(OC)c(OCCCCCCC(=O)NO)cc23)c1; y
O=C(Nc1ccc2[nH]nc(-c3ccncc3)c2c1)[C@@H]1CCN(CC(=O)N2CCN(c3ccc(-c4ncccn4)cc3)CC2)C1; y
COc1cc(C)c(Sc2cnc(NC(=O)c3ccc(CNC(C)C(C)C)cc3)s2)cc1C(=O)N1CCN(C(C)=O)CC1 (configuration not stated); y
CN1c2ccccc2C(=O)N2CCc3c([nH]c4ccccc34)C21 (configuration not stated); y
N#CC1(c2ccc(NC(=O)c3cccnc3NCc3ccncc3)cc2)CCCC1; n
Cn1ncnc1[C@H]1c2n[nH]c(=O)c3cc(F)cc(c23)N[C@@H]1c1ccc(F)cc1; y
COc1c(C)cnc(Cn2cnc3c(Cl)nc(N)nc32)c1C; y
O=C(O)[C@H](Cc1c[nH]c2ccccc12)N1C(=O)c2ccccc2C1=O; n
CC(C)(Sc1ccc(CCN(CCCCC2CCCCC2)C(=O)NC2CCCCC2)cc1)C(=O)O; n
CS(=O)(=O)c1ccc(-c2cnc(N)c(C(=O)Nc3ccccc3)n2)cc1; y
O=c1c(-c2ccc(O)cc2)coc2cc(O)cc(O)c12; y
Cc1ccc(NC(=O)Nc2cc(C(F)(F)F)ccc2F)cc1Nc1ccc2c(c1)NC(=O)/C2=C\c1ccc[nH]1; y
Cc1c(C(=O)Nc2ccc(N3C[C@@H](C)O[C@@H](C)C3)nc2)cccc1-c1ccc(OC(F)(F)F)cc1; n
O=[N+]([O-])c1cn2c(n1)OC[C@@H](OCc1ccc(OC(F)(F)F)cc1)C2; n
COc1ccc2c(c1)c(CC(=O)O)c(C)n2C(=O)c1ccc(Cl)cc1; n
Cc1ccc(C(N)=O)cc1Nc1nccc(-c2cn(C(C)C)c3cnccc23)n1; y

The measurements presented in this section are drawn from PubChem BioAssay (NCATS).
